Target: T1, human TREM2 full length stalk region peptide (aa 129-172) (human, biotinylated (site not stated))
T1 construct: also called Human TREM2 peptide (aa 129-172); full-length TREM2 stalk peptide
T1 peptide: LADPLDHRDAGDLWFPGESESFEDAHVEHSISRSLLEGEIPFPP
Test: ELISA on biotinylated peptide captured by streptavidin; A450 normalised to isotype control
Listed here: items and their measured fold over background (A450).
Provide only the numeric value, understood in fold.

Some solved cases for reference:
- CL0020173 (antibody, V domains shown, also called Clone CL0020173) VH: EVKLLESGGGLVQPGSSMRLSCAASGFTFTDFYMNWIRQPAGRAPEWLGFFRNIVDGYTTEYNPSVKGRFTISRDNTQNMLYLQMNTLRAEDTATYYCARSGYSSYIYGGTFAYWGQGTLVTVSS VL: ETVMTQSPTSMSTSIGERVTLNCKASQSVGIHVDWYQQTPGQSPKLLIYGASNRHTGVPDRFTGSGFGRDFTLTISNVEAEDLAVYYCLQYGSIPWTFGGGTKLELK: 1.6
- CL0020107 (antibody, V domains shown, also called Clone CL0020107) VH: QVQLQQPGAELVKPGASVKMSCRASGYTFTNYWISWVKQRPGQGLEWIGDIYPHSTSTNYNERFRSKATLTVDKSSTTAYMQLSSLTSEDSAVYYCAREGFGISAWGQGTTLTVSS VL: QIVLTQSPAIMSASPGEKVTITCSATSSVSYMHWFQQKPGTSPKLWIYSTSNLASGVPARFSGSGSGTSHSLTISRMEAEDAATYYCQQRSSYPLTFGSGTKLELK: 1.7
- CL0020111 (antibody, V domains shown, also called Clone CL0020111) VH: QVQLQQPGADLVKPGASVKMSCKASGYTFTNYWITWVQQRPGQGLEWIGDIYPGSGNTNYNEKFRSKATLTVDTSSNTAYMQLSSLTSEDSAVYYCSREGYGISAWGQGTTLTVSS VL: QIVLTQSPAFMSASPGEKVTITCRASSSVSYMHWFQQKPGTSPKLWIFSTSNLASGVPARFSGSGSGTSHSLTISRMEAEDAATYYCQQRSGYPLTFGAGTKLELK: 1.3
- CL0020210 (antibody, V domains shown, also called Clone CL0020210; CL020210) VH: QIQLVQSGPELRKPGETVKISCKASGYTFTTYGMSWVKQAPGKGLKWMGWINTYSGLPRHSDDFKGRFAFSLETSASTAYLQINNLKNEDTATYFCAREVYYGSRKTAWFAYWGQGTLVTVSA VL: DLVMSQSPSSLAVSVGERITMTCKSSQSLLYSNDQKNYLAWYQQIPGQSPKLLLYWASTRESGVPDRFTGSGSGTDFTLTISSVKAEDLAVYFCQQYYNYPPTFGAGTKLELK: 50

Which fold over background (A450) is reported for this binder? CL0020123 (antibody, V domains shown, also called Clone CL0020123) VH: EVQLQQSGAELVRSGASVKLSCTASGFSIEDFYIHWVKQRPEQGLEWIGWIDPENGDSKYAPKFQGKATMTADTSSNTAYLHLSSLTSEDTAVYYCHADHGNYGSTMDYWGQGTSVTVSS VL: DIQMNQSPSSLSASLGDTVTITCHASQHINVWLSWYQQKPGDHPKLLIYKASNLHTGVPSRFSGSGSGTGFTLTISSLQPEDIATYYCQQGQTYPRTFGGGTKLEIK 1.2
